Test system: Rodentolepis nana
Test Description: Anthelmintic activity against mice infected with parasite Hymenolepis nana at a dose of 125 ppm (in feed)
Format: functional
Recorded Reduction values for a group of compounds are listed next.
Observable: Reduction (%)

molecule=N#C/C(C(=O)Nc1ccc(Cl)cc1)=C(/O)c1ccc(Cl)c(Cl)c1 observable=Reduction meas_value=100
molecule=N#C/C(C(=O)Nc1ccc(C(F)(F)F)cc1)=C(/O)c1ccc(I)cc1 observable=Reduction meas_value=89
molecule=N#C/C(C(=O)Nc1ccc(F)cc1)=C(/O)c1ccc(C(F)(F)F)cc1 observable=Reduction meas_value=0
molecule=N#C/C(C(=O)Nc1ccc(Cl)cc1)=C(/O)c1ccc(Cl)cc1 observable=Reduction meas_value=100
molecule=COc1ccc(/C(O)=C(\C#N)C(=O)Nc2ccc(C(F)(F)F)cc2)cc1 observable=Reduction meas_value=0
molecule=Cc1cc(C#N)ccc1NC(=O)/C(C#N)=C(\O)c1ccc(C(F)(F)F)cc1 observable=Reduction meas_value=100
molecule=N#C/C(C(=O)Nc1ccc(C(F)(F)F)cc1)=C(/O)c1ccc(C#N)cc1 observable=Reduction meas_value=78
molecule=N#C/C(C(=O)Nc1ccc(Cl)c(Cl)c1)=C(/O)c1ccc(Cl)c(Cl)c1 observable=Reduction meas_value=0
molecule=N#C/C(C(=O)Nc1ccc(Br)cc1)=C(/O)c1ccc(Cl)cc1 observable=Reduction meas_value=0
molecule=N#C/C(C(=O)Nc1ccc(Br)cc1)=C(/O)c1ccc(Br)cc1 observable=Reduction meas_value=0

----------
Test system: Rodentolepis nana
Test Description: Anthelmintic activity against mice infected with parasite Hymenolepis nana at a dose of 125 ppm (in feed)
Format: functional
Observable: Reduction (%)

molecule=N#C/C(C(=O)Nc1ccccc1C(F)(F)F)=C(/O)c1ccc(C(F)(F)F)cc1 meas_value=0
molecule=N#C/C(C(=O)Nc1ccc(Sc2ccc(Cl)cc2)cc1)=C(/O)c1ccc(C(F)(F)F)cc1 meas_value=0
molecule=N#C/C(C(=O)Nc1ccc(C(F)(F)F)cc1)=C(/O)c1cccc(C(F)(F)F)c1 meas_value=100
molecule=N#C/C(C(=O)c1ccc(C(F)(F)F)cc1)=C(/S)Nc1ccc(C(F)(F)F)cc1 meas_value=0
molecule=N#C/C(C(=O)Nc1ccc(N=C=S)cc1)=C(/O)c1ccc(C(F)(F)F)cc1 meas_value=0
molecule=N#C/C(C(=O)Nc1ccc(F)cc1)=C(/O)c1ccc(F)cc1 meas_value=0
molecule=CC(=O)c1ccc(NC(=O)/C(C#N)=C(\O)c2ccc(C(F)(F)F)cc2)cc1 meas_value=0
molecule=N#C/C(C(=O)Nc1ccc(Cl)cc1)=C(/O)c1ccc(C(F)(F)F)cc1 meas_value=100
molecule=Cc1ccc(/C(O)=C(\C#N)C(=O)Nc2ccc(C(F)(F)F)cc2)cc1 meas_value=0
molecule=N#C/C(C(=O)Nc1ccc(C(F)(F)F)cc1)=C(/O)c1ccc(S(=O)(=O)c2ccccc2)cc1 meas_value=0
molecule=N#C/C(C(=O)Nc1ccc(Cl)cc1)=C(/O)c1ccc(Br)cc1 meas_value=0
molecule=N#C/C(C(=O)Nc1ccc(C(F)(F)F)cc1)=C(/O)c1ccc(OC(F)(F)F)cc1 meas_value=100
molecule=N#CSc1ccc(NC(=O)/C(C#N)=C(\O)c2ccc(C(F)(F)F)cc2)cc1 meas_value=0
molecule=COc1ccc(NC(=O)/C(C#N)=C(\O)c2ccc(C(F)(F)F)cc2)cc1 meas_value=0
molecule=N#C/C(C(=O)Nc1ccc(C(F)(F)F)cc1)=C(/O)c1ccc(Oc2ccc(Cl)cc2)cc1 meas_value=0
molecule=N#C/C(C(=O)Nc1ccc(Cl)c(Cl)c1)=C(/O)c1ccc(Cl)cc1 meas_value=47
molecule=N#C/C(C(=O)Nc1ccc(Oc2ccc(Cl)cc2)c(Cl)c1)=C(/O)c1ccc(C(F)(F)F)cc1 meas_value=0
molecule=N#C/C(C(=O)Nc1ccc(C(F)(F)F)cc1)=C(/O)c1ccc(F)cc1 meas_value=100
molecule=COC(=O)c1ccc(NC(=O)/C(C#N)=C(\O)c2ccc(C(F)(F)F)cc2)cc1 meas_value=0
molecule=N#C/C(C(=O)Nc1ccc(Cl)cc1Cl)=C(/O)c1ccc(C(F)(F)F)cc1 meas_value=100

----------
Tested on: Rodentolepis nana
Test Description: Anthelmintic activity against mice infected with parasite Hymenolepis nana at a dose of 125 ppm (in feed)
Type: functional
Observable: Reduction

molecule=N#C/C(C(=O)Nc1ccc(C(F)(F)F)cc1)=C(/O)c1cccc(Cl)c1 meas_value=0%
molecule=N#C/C(C(=O)Nc1ccc(Br)cc1)=C(/O)c1ccc(C(F)(F)F)cc1 meas_value=95%
molecule=Cc1cc([N+](=O)[O-])ccc1NC(=O)/C(C#N)=C(\O)c1ccc(C(F)(F)F)cc1 meas_value=99%
molecule=N#C/C(C(=O)Nc1ccc([N+](=O)[O-])cc1)=C(/O)c1ccc(C(F)(F)F)cc1 meas_value=0%
molecule=N#C/C(C(=O)Nc1ccc(Cl)c(Cl)c1)=C(/O)c1ccc(C(F)(F)F)cc1 meas_value=93%
molecule=CCN(CC)C(=O)c1ccc(NC(=O)/C(C#N)=C(\O)c2ccc(C(F)(F)F)cc2)cc1 meas_value=0%

----------
System: Heligmosomoides polygyrus
Test Description: Anthelmintic activity against mice, infected with parasite Nematospiroides dubius, at a dose of 250(ppm in feed)
Type: functional
Observable: Reduction (%)

molecule=N#C/C(C(=O)Nc1ccc(Sc2ccc(Cl)cc2)cc1)=C(/O)c1ccc(C(F)(F)F)cc1 assay_system="Heligmosomoides polygyrus" observable=Reduction meas_value=94
molecule=N#C/C(C(=O)Nc1ccc(Sc2ccccc2)cc1)=C(/O)c1ccc(C(F)(F)F)cc1 assay_system="Heligmosomoides polygyrus" observable=Reduction meas_value=0
molecule=N#C/C(C(=O)Nc1ccc(C(F)(F)F)cc1)=C(/O)Cc1ccc(C(F)(F)F)cc1 assay_system="Heligmosomoides polygyrus" observable=Reduction meas_value=90
molecule=N#C/C(C(=O)c1ccc(C(F)(F)F)cc1)=C(/S)Nc1ccc(C(F)(F)F)cc1 assay_system="Heligmosomoides polygyrus" observable=Reduction meas_value=100
molecule=N#C/C(C(=O)Nc1ccc(C(F)(F)F)cc1)=C(O)\C=C\c1ccc(C(F)(F)F)cc1 assay_system="Heligmosomoides polygyrus" observable=Reduction meas_value=48

----------
Test system: Rodentolepis nana
Test Description: Anthelmintic activity against mice infected with parasite Hymenolepis nana at a dose of 125 ppm (in feed)
Type: functional
Observable: Reduction (%)

molecule=N#C/C(C(=O)Nc1ccc(C(F)(F)F)cc1)=C(/O)Cc1ccc(C(F)(F)F)cc1 observable=Reduction unit_string=% meas_value=0
molecule=N#C/C(C(=O)Nc1ccc(I)cc1)=C(/O)c1ccc(C(F)(F)F)cc1 observable=Reduction unit_string=% meas_value=0
molecule=N#C/C(C(=O)Nc1ccc(C(F)(F)F)cc1)=C(/O)c1ccc(Cl)c(Cl)c1 observable=Reduction unit_string=% meas_value=0
molecule=N#C/C(C(=O)Nc1ccc(C#N)cc1)=C(/O)c1ccc(C(F)(F)F)cc1 observable=Reduction unit_string=% meas_value=100
molecule=CN(C(=O)/C(C#N)=C(\O)c1ccc(C(F)(F)F)cc1)c1ccc(C(F)(F)F)cc1 observable=Reduction unit_string=% meas_value=0
molecule=N#C/C(C(=O)Nc1cccc(C(F)(F)F)c1)=C(/O)c1ccc(C(F)(F)F)cc1 observable=Reduction unit_string=% meas_value=0
molecule=N#C/C(C(=O)Nc1ccc(C(F)(F)F)cc1)=C(/O)c1ccccc1C(F)(F)F observable=Reduction unit_string=% meas_value=0
molecule=N#C/C(C(=O)Nc1ccc(C(F)(F)F)cc1)=C(/O)c1cc(Cl)cc(Cl)c1 observable=Reduction unit_string=% meas_value=100
molecule=CS(=O)(=O)c1ccc(NC(=O)/C(C#N)=C(\O)c2ccc(C(F)(F)F)cc2)cc1 observable=Reduction unit_string=% meas_value=0

----------
Test system: Ovis aries
Test Description: Anthelmintic activity against sheep, infected with Ostertagia circumcincta, at a dose of 30 mg/kg.
Type: functional
Listing: Reduction of selected compounds
Observable: Reduction (%)

molecule=N#C/C(C(=O)Nc1ccc(Oc2ccc(Cl)cc2)c(Cl)c1)=C(/O)c1ccc(C(F)(F)F)cc1 unit_string=% meas_value=0
molecule=N#C/C(C(=O)Nc1ccc(C(F)(F)F)cc1)=C(/O)c1cc(Cl)cc(Cl)c1 unit_string=% meas_value=0
molecule=Cc1cc([N+](=O)[O-])ccc1NC(=O)/C(C#N)=C(\O)c1ccc(C(F)(F)F)cc1 unit_string=% meas_value=0
molecule=N#C/C(C(=O)Nc1ccc(C#N)cc1)=C(/O)c1ccc(C(F)(F)F)cc1 unit_string=% meas_value=7
